- subject.of.test: OR53/ORco (Anopheles gambiae, UniProt A0ABK8FS74+Q7QCC7)
- Sequence (A0ABK8FS74 entry or part of it): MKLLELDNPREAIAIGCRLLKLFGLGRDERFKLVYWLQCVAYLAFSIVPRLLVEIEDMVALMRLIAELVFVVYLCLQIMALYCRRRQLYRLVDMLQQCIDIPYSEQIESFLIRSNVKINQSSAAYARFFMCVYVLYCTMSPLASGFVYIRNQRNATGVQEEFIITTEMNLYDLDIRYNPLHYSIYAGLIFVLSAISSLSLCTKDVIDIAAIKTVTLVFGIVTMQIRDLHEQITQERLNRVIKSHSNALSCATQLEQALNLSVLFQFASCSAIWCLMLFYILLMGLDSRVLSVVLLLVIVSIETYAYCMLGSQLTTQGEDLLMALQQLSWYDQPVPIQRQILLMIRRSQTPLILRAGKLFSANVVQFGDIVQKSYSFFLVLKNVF
- Sequence (Q7QCC7 whole entry): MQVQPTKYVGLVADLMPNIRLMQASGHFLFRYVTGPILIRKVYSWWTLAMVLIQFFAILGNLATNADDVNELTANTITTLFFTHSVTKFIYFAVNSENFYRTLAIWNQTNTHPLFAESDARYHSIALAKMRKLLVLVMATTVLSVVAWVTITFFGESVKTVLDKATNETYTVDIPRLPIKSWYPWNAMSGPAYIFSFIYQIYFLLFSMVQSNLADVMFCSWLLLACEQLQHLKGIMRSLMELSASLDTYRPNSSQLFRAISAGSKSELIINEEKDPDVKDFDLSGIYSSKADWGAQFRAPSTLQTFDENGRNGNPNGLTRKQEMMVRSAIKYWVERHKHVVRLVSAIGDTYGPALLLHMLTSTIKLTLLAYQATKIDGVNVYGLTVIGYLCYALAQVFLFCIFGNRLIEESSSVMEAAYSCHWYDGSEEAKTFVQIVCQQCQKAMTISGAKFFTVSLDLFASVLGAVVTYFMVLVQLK
- Format: cell-based
- run.parameters: OR53+ORco, agonist alone
measurement.label: EC50 (µM)
Give bare numbers, in µM.

Form field - read-out: EC50; system: OR53/ORco (Anopheles gambiae, UniProt A0ABK8FS74+Q7QCC7); submitted item: C=CC(C)(O)CCC=C(C)C (stereo not shown)
181

Data provenance is paper PMC5145856.
